Origin of measurements: paper PMC6928761

System: LLC-MK2 cells
Assay: Cytotoxicity evaluation (mammalian cells), MTT assay
Type: cell-based
Conditions: Macaca mulatta, LLC-MK2; 24 h exposure, MTT; read-out: LLC-MK2 IC50
Description: The trypanocidal activity of the p-coumaric derivatives (1–12) were evaluated against epimastigotes and trypomastigote forms of T. cruzi (strain Y) at 24 h of incubation and in host LLC-MK2 cells at 24 h of exposure to different concentrations: 100; 50; 25; 12.5; 6.25; 3.12; and 1.56 μg/mL. In the MTT assay it was possible to calculate the IC50 of the tested substances through cell viability, which was calculated in relation to the negative control, whose absorbance was considered 100%. […]
pIC50: −log10 of the molar value.
Observable: pIC50

Item under review: COC(=O)/C=C/c1ccc(O)cc1 [compound 1, (E)-Methyl 3-(4-hydroxyphenyl)acrylate] . Reported pIC50? < 3.25

====

Form field: pIC50 (one value per entry).
tested on: T. cruzi (strain Y) epimastigotes; assay: Effect on T. cruzi epimastigote forms (24 h, Neubauer chamber count); assay type: cell-based, Trypanosoma cruzi; conditions: Trypanosoma cruzi, 24 h, read-out: Y strain (Epimastigotes) IC50, 24 h incubation
Convention used: pIC50 is expressed as -log10 of the molar concentration.

Item under review: Cc1ccc(COC(=O)/C=C/c2ccc(O)cc2)cc1 . Reported pIC50? 4.12

Could you do the same for CC(C)CCOC(=O)/C=C/c1ccc(O)cc1 [compound 8, isopentyl p-coumarate] , please? 4.88

Could you do the same for CCCCCCCCCCCCOC(=O)/C=C/c1ccc(O)cc1 , please? 4.30

Could you do the same for CC(C)OC(=O)/C=C/c1ccc(O)cc1 , please? 3.48

Could you do the same for COCCOC(=O)/C=C/c1ccc(O)cc1 [compound 5, 2-methoxyethyl p-coumarate] , please? 4.49

Could you do the same for CCCCOC(=O)/C=C/c1ccc(O)cc1 , please? 3.81

====

test system: T. cruzi (strain Y) epimastigotes; assay: Effect on T. cruzi epimastigote forms (24 h, Neubauer chamber count); assay type: cell-based, Trypanosoma cruzi; conditions: Trypanosoma cruzi, 24 h, read-out: Y strain (Epimastigotes) IC50, 24 h incubation
Observable: pIC50
Convention used: pIC50 is expressed as -log10 of the molar concentration.

Molecule	Observable	Reading
CCOC(=O)/C=C/c1ccc(O)cc1 [compound 2]	pIC50	3.67
CCCCCOC(=O)/C=C/c1ccc(O)cc1 [compound 7, pentyl p-coumarate]	pIC50	5.29
CCCCCCOC(=O)/C=C/c1ccc(O)cc1 [compound 9]	pIC50	4.16
CC(C)c1ccc(COC(=O)/C=C/c2ccc(O)cc2)cc1 [compound 12]	pIC50	4.16

For the record CCCOC(=O)/C=C/c1ccc(O)cc1 [compound 3, Propyl p-coumarate] , what value of pIC50 is listed for T. cruzi (strain Y) epimastigotes? 4.78
